# Tested on: TGBC1TKB;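 also: growth inhibition of TGBC1TKB cells, read out by a cell viability assay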
# method.description: cells
# Type: functional, cell-based, Homo sapiens
# setup.conditions: tgbc1tkb
# Description: SANGER: Inhibition of human TGBC1TKB cell growth in a cell viability assay.
pIC50: −log10 of the molar value.
parameter.measured: pIC50

residue.string: CISPLATIN
parameter.measured: pIC50
endpoint.result: 4.08

---

# System: NY
# method.description: cells
# Assay type: functional, cell-based, Homo sapiens
# setup.conditions: Homo sapiens, NY
# Description: SANGER: Inhibition of human NY cell growth in a cell viability assay.
Form field: IC50 (one value per entry).
parameter.measured: IC50

compound: CN(C)C(=N)NC(=N)N
tested.on: NY
endpoint.result: 14100 µM
--
compound: O=C(O)c1ccc(-c2c[nH]c3ncc(-c4ccccc4)cc23)cc1C1CCCC1
tested.on: NY
endpoint.result: > 16 µM
--
compound: C=C(c1ccc(C(=O)O)cc1)c1cc2c(cc1C)C(C)(C)CCC2(C)C
tested.on: NY
endpoint.result: > 8 µM
--
compound: CC(C)CCN1c2nc(Nc3cc(F)c(O)c(F)c3)ncc2N(C)C(=O)C1C (stereo unspecified)
tested.on: NY
endpoint.result: > 5 µM
--
compound: Cc1cn(-c2cc(NC(=O)c3ccc(C)c(Nc4nccc(-c5cccnc5)n4)c3)cc(C(F)(F)F)c2)cn1
tested.on: NY
endpoint.result: > 2 µM
--
compound: COc1cccc2c1C(=O)c1c(O)c3c(c(O)c1C2=O)C[C@@](O)(C(=O)CO)C[C@@H]3O[C@H]1C[C@H](N)[C@H](O)[C@H](C)O1
tested.on: NY
endpoint.result: 0.228 µM

---

# System: KG-1
# method.description: cells
# Format: functional, cell-based, Homo sapiens
# setup.conditions: kg-1
# Description: SANGER: Inhibition of human KG-1 cell growth in a cell viability assay.
pIC50: −log10 of the molar value.
Form field: pIC50 (one value per entry).

residue.string: CISPLATIN
pIC50: 5.44

residue.string: BLEOMYCIN
pIC50: 6.88

---

# Test system: NCI-H716;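 also: growth inhibition of human NCI-H716 cells, measured by a cell viability assay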
# method.description: cells
# Type: functional, cell-based, Homo sapiens
# setup.conditions: Homo sapiens, NCI-H716
# Description: SANGER: Inhibition of human NCI-H716 cell growth in a cell viability assay.
Structures can show the parent of a compound that is named as a salt.
Form field: IC50 (one value per entry).

molecule: O=C(O)c1ccc(-c2c[nH]c3ncc(-c4ccccc4)cc23)cc1C1CCCC1 [GSK-650394]
IC50: > 16 µM

molecule: CC[C@H](CO)Nc1nc(NCc2ccccc2)c2ncn(C(C)C)c2n1 [SELICICLIB]
IC50: > 16 µM

molecule: N#Cc1c(O)c2c(-c3ccc(-c4ccccc4O)cc3)csc2[nH]c1=O
IC50: > 1.02 µM

molecule: Cc1cc([N+](=O)[O-])ccc1NS(=O)(=O)c1cc(Cl)ccc1Cl
IC50: > 32 µM

molecule: COC1=CC(c2cc3ccccc3[nH]2)=N/C1=C\c1[nH]c(C)cc1C [OBATOCLAX MESYLATE]
IC50: 1.69 µM

---

# System: EFM-19;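 also: growth inhibition of human EFM-19 cells, measured in a cell viability assay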
# method.description: cells
# Type: functional, cell-based, Homo sapiens
# setup.conditions: Homo sapiens, EFM-19
# Description: SANGER: Inhibition of human EFM-19 cell growth in a cell viability assay.
pIC50: −log10 of the molar value.

compound: Nc1ccn([C@@H]2O[C@H](CO)[C@@H](O)C2(F)F)c(=O)n1
qual: <
pIC50: 5.99

compound: COc1cccc2c1C(=O)c1c(O)c3c(c(O)c1C2=O)C[C@@](O)(C(=O)CO)C[C@@H]3O[C@H]1C[C@H](N)[C@H](O)[C@H](C)O1
qual: =
pIC50: 6.32

compound: Oc1ccc2ccccc2c1SSc1c(O)ccc2ccccc12
qual: =
pIC50: 4.56

compound: CC1(C)CNc2cc(NC(=O)c3cccnc3NCc3ccncc3)ccc21
qual: <
pIC50: 5.70

compound: CCN(CC)CCCCNc1ncc2cc(-c3cc(OC)cc(OC)c3)c(NC(=O)NC(C)(C)C)nc2n1
qual: <
pIC50: 5.70

compound: Cc1cc([N+](=O)[O-])ccc1NS(=O)(=O)c1cc(Cl)ccc1Cl
qual: =
pIC50: 5.26

compound: CC(C)CCN1c2nc(Nc3cc(F)c(O)c(F)c3)ncc2N(C)C(=O)C1C (configuration not stated)
qual: <
pIC50: 5.30

---

# System: COR-L23;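 also: cell viability assay measuring how strongly compounds suppress growth of COR-L23 cells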
# method.description: cells
# Type: functional, cell-based, Homo sapiens
# setup.conditions: cor-l23
# Description: SANGER: Inhibition of human COR-L23 cell growth in a cell viability assay.

residue.string: CISPLATIN
IC50 (µM): 5.63

---

Form field: IC50 (one value per entry).
# Tested on: RCM-1;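 also: growth inhibition of the RCM-1 line, determined with a cell viability readout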
# method.description: cells
# Type: functional, cell-based, Homo sapiens
# setup.conditions: Homo sapiens, RCM-1
# Description: SANGER: Inhibition of human RCM-1 cell growth in a cell viability assay.

compound: N#Cc1c(O)c2c(-c3ccc(-c4ccccc4O)cc3)csc2[nH]c1=O
IC50: > 1.02 µM
//
compound: C=C(c1ccc(C(=O)O)cc1)c1cc2c(cc1C)C(C)(C)CCC2(C)C
IC50: > 8 µM
//
compound: Cn1cnc2c(F)c(Nc3ccc(Br)cc3Cl)c(C(=O)NOCCO)cc21
IC50: 0.494 µM
//
compound: Nc1ccn([C@@H]2O[C@H](CO)[C@@H](O)C2(F)F)c(=O)n1
IC50: 0.665 µM
//
compound: CC1(C)CNc2cc(NC(=O)c3cccnc3NCc3ccncc3)ccc21
IC50: > 2 µM
//
compound: Nc1cccc2c1CN(C1CCC(=O)NC1=O)C2=O (stereo not drawn) [LENALIDOMIDE]
IC50: > 5 µM
//
compound: Cc1cn(-c2cc(NC(=O)c3ccc(C)c(Nc4nccc(-c5cccnc5)n4)c3)cc(C(F)(F)F)c2)cn1
IC50: > 2 µM
//
compound: Cc1cc([N+](=O)[O-])ccc1NS(=O)(=O)c1cc(Cl)ccc1Cl
IC50: 8.76 µM

---

# Test system: CAS-1;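 also: growth inhibition of CAS-1 cells, measured with a cell viability assay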
# method.description: cells
# Format: functional, cell-based, Homo sapiens
# setup.conditions: Homo sapiens, CAS-1
# Description: SANGER: Inhibition of human CAS-1 cell growth in a cell viability assay.
Form field: IC50 (one value per entry).
parameter.measured: IC50

molecule: CC1(C)CNc2cc(NC(=O)c3cccnc3NCc3ccncc3)ccc21
parameter.measured: IC50
endpoint.result: > 2000 nM
--
molecule: CC(=O)O[C@H]1C(=O)[C@@]2(C)[C@H]([C@H](OC(=O)c3ccccc3)[C@]3(O)C[C@H](OC(=O)[C@H](O)[C@@H](NC(=O)c4ccccc4)c4ccccc4)C(C)=C1C3(C)C)[C@]1(OC(C)=O)CO[C@@H]1C[C@@H]2O
parameter.measured: IC50
endpoint.result: > 102 nM
--
molecule: CC(C)CCN1c2nc(Nc3cc(F)c(O)c(F)c3)ncc2N(C)C(=O)C1C (stereo not given)
parameter.measured: IC50
endpoint.result: > 5000 nM
--
molecule: CO[C@H]1C[C@@H]2CC[C@@H](C)[C@@](O)(O2)C(=O)C(=O)N2CCCC[C@H]2C(=O)O[C@H]([C@H](C)C[C@@H]2CC[C@@H](OC(=O)C(C)(CO)CO)[C@H](OC)C2)CC(=O)[C@H](C)/C=C(\C)[C@@H](O)[C@@H](OC)C(=O)[C@H](C)C[C@H](C)/C=C/C=C/C=C/1C
parameter.measured: IC50
endpoint.result: > 200 nM
--
molecule: COc1cc2ncn(-c3cc(OCc4ccccc4S(C)(=O)=O)c(C#N)s3)c2cc1OC [GSK-319347A]
parameter.measured: IC50
endpoint.result: > 5000 nM

---

# System: RS4-11
# method.description: cells
# Assay type: functional, cell-based, Homo sapiens
# setup.conditions: Homo sapiens, RS4-11
# Description: SANGER: Inhibition of human RS4-11 cell growth in a cell viability assay.
Form field: IC50 (one value per entry).

compound: Nc1ccn([C@@H]2O[C@H](CO)[C@@H](O)C2(F)F)c(=O)n1
IC50: < 4 nM
//
compound: Nc1cccc2c1CN(C1CCC(=O)NC1=O)C2=O (stereo not given) [LENALIDOMIDE]
IC50: > 5000 nM
//
compound: Cc1ccc(-c2c(C(=O)CCl)n(CCCO)c3ncnc(N)c23)cc1
IC50: > 4000 nM
//
compound: CC(C)CCN1c2nc(Nc3cc(F)c(O)c(F)c3)ncc2N(C)C(=O)C1C (stereo not given)
IC50: > 5000 nM
//
compound: N#Cc1c(O)c2c(-c3ccc(-c4ccccc4O)cc3)csc2[nH]c1=O
IC50: 85.7 nM

---

Form field: IC50 (one value per entry).
# System: KY821
# method.description: cells
# Format: functional, cell-based, Homo sapiens
# setup.conditions: Homo sapiens, KY821
# Description: SANGER: Inhibition of human KY821 cell growth in a cell viability assay.
parameter.measured: IC50 (nM)

molecule: N[C@@H](CSC(c1ccccc1)(c1ccccc1)c1ccccc1)C(=O)O
tested.on: KY821
qual: =
endpoint.result: 1780
--
molecule: Cc1cc([N+](=O)[O-])ccc1NS(=O)(=O)c1cc(Cl)ccc1Cl
tested.on: KY821
qual: >
endpoint.result: 32000
--
molecule: COc1cc2ncn(-c3cc(OCc4ccccc4S(C)(=O)=O)c(C#N)s3)c2cc1OC [GSK-319347A]
tested.on: KY821
qual: >
endpoint.result: 5000
--
molecule: CC(C)CCN1c2nc(Nc3cc(F)c(O)c(F)c3)ncc2N(C)C(=O)C1C (stereo not drawn)
tested.on: KY821
qual: =
endpoint.result: 888
--
molecule: Nc1ccn([C@@H]2O[C@H](CO)[C@@H](O)C2(F)F)c(=O)n1
tested.on: KY821
qual: >
endpoint.result: 1020
--
molecule: CCN(CC)CCCCNc1ncc2cc(-c3cc(OC)cc(OC)c3)c(NC(=O)NC(C)(C)C)nc2n1
tested.on: KY821
qual: >
endpoint.result: 2000
--
molecule: CCN(CC)CCNC(=O)c1c(C)[nH]c(/C=C2\C(=O)Nc3ccc(F)cc32)c1C
tested.on: KY821
qual: =
endpoint.result: 2800
--
molecule: COc1cc(-c2nn([C@H]3CC[C@H](N4CCN(C(C)=O)CC4)CC3)c3ncnc(N)c23)ccc1NC(=O)c1cc2ccccc2n1C
tested.on: KY821
qual: =
endpoint.result: 3650
